All figures here come from paper PMC3191323.

- Test system: P. falciparum strain 3D7
- experimental-protocol: Malaria SYBR Green I-based fluorescence assay
- Assay type: cell-based, Plasmodium falciparum
- recorded-conditions: Plasmodium falciparum, 3D7, 96 h, read-out: Antimalarial activity against P. falciparum IC50, 3D7
parameter-measured: IC50 (nM)
Quick note: give the figure in nM, leave out the unit.

### Prompt Dear colleague, I am looking for the recorded IC50 of the following compound: CCN(CC)CCCC(C)Nc1ccnc2cc(Cl)ccc12 (stereo not shown) [CQ, chloroquine, reference compound]
### Response 9

###

- Test system: P. falciparum strain W2
- experimental-protocol: Malaria SYBR Green I-based fluorescence assay
- Type: cell-based
- recorded-conditions: Plasmodium falciparum, W2, 96 h, read-out: Antimalarial activity against P. falciparum IC50, W2
parameter-measured: pIC50
// field semantics: pIC50 = negative decimal log of concentration (mol/L)

### Prompt State the recorded pIC50 for this entry: CCN(CC)CCCC(C)Nc1ccnc2cc(Cl)ccc12 (stereo not shown) [CQ, chloroquine, reference compound]
### Response 7.15
